Just for reference, patent US20120172293A1 is where these values come from.

test system: human Y2 receptor (human) (UniProt P49146)
Sequence (P49146 whole entry): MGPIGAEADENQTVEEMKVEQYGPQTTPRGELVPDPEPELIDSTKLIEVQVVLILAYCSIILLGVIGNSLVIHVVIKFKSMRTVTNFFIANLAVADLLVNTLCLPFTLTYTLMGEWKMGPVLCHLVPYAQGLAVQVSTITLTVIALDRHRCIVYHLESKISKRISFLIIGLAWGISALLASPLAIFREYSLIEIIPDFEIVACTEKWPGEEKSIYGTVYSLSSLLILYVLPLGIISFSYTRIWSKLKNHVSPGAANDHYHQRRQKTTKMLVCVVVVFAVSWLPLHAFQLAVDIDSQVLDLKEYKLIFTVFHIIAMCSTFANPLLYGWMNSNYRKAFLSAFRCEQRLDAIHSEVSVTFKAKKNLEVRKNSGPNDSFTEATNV
assay name: cell-based or functional assay
Starred links: 1 amine or outer side, 2 acyl side, 3 side chain; linkers in the order of their positions; H or OH if unused. Non-standard residues stand in square brackets, D forms with d. Primed or numbered codes have the meaning given here. *: point of attachment. Ser(Me)″ = O-methylserine, COC[C@H](N[*:1])C(=O)[*:2]; Lys(Me2) = CN(C)CCCC[C@H](N)C(=O)O; Cha = N[C@@H](CC1CCCCC1)C(=O)O; Gly(cPr) = N[C@H](C(=O)O)C1CC1; dCha = N[C@H](CC1CCCCC1)C(=O)O; Isobutyryl = CC(C)C(=O)*; Nva = CCC[C@H](N)C(=O)O; Abu = CC[C@H](N)C(=O)O; Aib = CC(C)(N)C(=O)O; Bz = O=C(c1ccccc1)*; Sar = CNCC(=O)O
reported metric: GBA EC50 Ratio (vs PYY(3-36)), [35S]GTPγS
Give bare numbers.

These solved cases illustrate the format of a correct answer.
[
  {
    "binder": "Ac-[dS][Sar]RH[Cha][Cha]NL[Aib]TRQR[Cha]-NH2 (SMILES CC(=O)N[C@H](CO)C(=O)N(C)CC(=O)N[C@@H](CCCNC(=N)N)C(=O)N[C@@H](Cc1c[nH]cn1)C(=O)N[C@@H](CC1CCCCC1)C(=O)N[C@@H](CC1CCCCC1)C(=O)N[C@@H](CC(N)=O)C(=O)N[C@@H](CC(C)C)C(=O)NC(C)(C)C(=O)N[C@H](C(=O)N[C@@H](CCCNC(=N)N)C(=O)N[C@@H](CCC(N)=O)C(=O)N[C@@H](CCCNC(=N)N)C(=O)N[C@@H](CC1CCCCC1)C(N)=O)[C@@H](C)O) [Ac-[D-Ser23, Sar24, Cha27,28,36, Aib31]-PYY(23-36)]",
    "meas value": 5.3
  },
  {
    "binder": "Ac-S[dP]RH[Cha][Cha]N[Lys(Me2)][Aib]TRQR[Cha]-NH2 (SMILES CC(=O)N[C@@H](CO)C(=O)N1CCC[C@@H]1C(=O)N[C@@H](CCCNC(=N)N)C(=O)N[C@@H](Cc1c[nH]cn1)C(=O)N[C@@H](CC1CCCCC1)C(=O)N[C@@H](CC1CCCCC1)C(=O)N[C@@H](CC(N)=O)C(=O)N[C@@H](CCCCN(C)C)C(=O)NC(C)(C)C(=O)N[C@H](C(=O)N[C@@H](CCCNC(=N)N)C(=O)N[C@@H](CCC(N)=O)C(=O)N[C@@H](CCCNC(=N)N)C(=O)N[C@@H](CC1CCCCC1)C(N)=O)[C@@H](C)O) [Ac-[D-Pro24, Cha27,28,36, Lys(Me2)30, Aib31]-PYY(23-36)]",
    "meas value": 0.7
  },
  {
    "binder": "Bz-RH[Nva][Cha]NL[Aib]TRQR[Cha]-NH2 (SMILES CCC[C@H](NC(=O)[C@H](Cc1c[nH]cn1)NC(=O)[C@H](CCCNC(=N)N)NC(=O)c1ccccc1)C(=O)N[C@@H](CC1CCCCC1)C(=O)N[C@@H](CC(N)=O)C(=O)N[C@@H](CC(C)C)C(=O)NC(C)(C)C(=O)N[C@H](C(=O)N[C@@H](CCCNC(=N)N)C(=O)N[C@@H](CCC(N)=O)C(=O)N[C@@H](CCCNC(=N)N)C(=O)N[C@@H](CC1CCCCC1)C(N)=O)[C@@H](C)O) [Benzoyl-[Nva27, Cha28,36, Aib31]-PYY(25-36)]",
    "meas value": 8.6
  },
  {
    "binder": "Ac-[dCha]R[Abu][Cha][Cha]NL[Aib]TRQR[Cha]-NH2 (SMILES CC[C@H](NC(=O)[C@H](CCCNC(=N)N)NC(=O)[C@@H](CC1CCCCC1)NC(C)=O)C(=O)N[C@@H](CC1CCCCC1)C(=O)N[C@@H](CC1CCCCC1)C(=O)N[C@@H](CC(N)=O)C(=O)N[C@@H](CC(C)C)C(=O)NC(C)(C)C(=O)N[C@H](C(=O)N[C@@H](CCCNC(=N)N)C(=O)N[C@@H](CCC(N)=O)C(=O)N[C@@H](CCCNC(=N)N)C(=O)N[C@@H](CC1CCCCC1)C(N)=O)[C@@H](C)O) [Ac-[D-Cha24, Abu26, Cha27,28,36, Aib31]-PYY(24-36)]",
    "meas value": 13
  },
  {
    "binder": "Bz-RN[Cha][Cha]NL[Aib]TRQR[Cha]-NH2 (SMILES CC(C)C[C@H](NC(=O)[C@H](CC(N)=O)NC(=O)[C@H](CC1CCCCC1)NC(=O)[C@H](CC1CCCCC1)NC(=O)[C@H](CC(N)=O)NC(=O)[C@H](CCCNC(=N)N)NC(=O)c1ccccc1)C(=O)NC(C)(C)C(=O)N[C@H](C(=O)N[C@@H](CCCNC(=N)N)C(=O)N[C@@H](CCC(N)=O)C(=O)N[C@@H](CCCNC(=N)N)C(=O)N[C@@H](CC1CCCCC1)C(N)=O)[C@@H](C)O) [Benzoyl-[Asn26, Cha27,28,36, Aib31]-PYY(25-36)]",
    "meas value": 21
  },
  {
    "binder": "Isobutyryl-R[Abu][Cha][Gly(cPr)]NL[Aib]TRQR[Cha]-NH2 (SMILES CC[C@H](NC(=O)[C@H](CCCNC(=N)N)NC(=O)C(C)C)C(=O)N[C@@H](CC1CCCCC1)C(=O)N[C@H](C(=O)N[C@@H](CC(N)=O)C(=O)N[C@@H](CC(C)C)C(=O)NC(C)(C)C(=O)N[C@H](C(=O)N[C@@H](CCCNC(=N)N)C(=O)N[C@@H](CCC(N)=O)C(=O)N[C@@H](CCCNC(=N)N)C(=O)N[C@@H](CC1CCCCC1)C(N)=O)[C@@H](C)O)C1CC1) [Isobutanoyl-[Abu26, Cha27,36, Gly(cPr)28, Aib31]-PYY(25-36)]",
    "meas value": 41
  },
  {
    "binder": "Isobutyryl-R[Abu][Cha][Cha]NL[Gly(cPr)]TRQR[Cha]-NH2 (SMILES CC[C@H](NC(=O)[C@H](CCCNC(=N)N)NC(=O)C(C)C)C(=O)N[C@@H](CC1CCCCC1)C(=O)N[C@@H](CC1CCCCC1)C(=O)N[C@@H](CC(N)=O)C(=O)N[C@@H](CC(C)C)C(=O)N[C@H](C(=O)N[C@H](C(=O)N[C@@H](CCCNC(=N)N)C(=O)N[C@@H](CCC(N)=O)C(=O)N[C@@H](CCCNC(=N)N)C(=O)N[C@@H](CC1CCCCC1)C(N)=O)[C@@H](C)O)C1CC1) [Isobutanoyl-[Abu26, Cha27,28,36, Gly(cPr)31]-PYY(25-36)]",
    "meas value": 16
  }
]

Could you now look at the following binder, please?
Task: Can you share its GBA EC50 Ratio (vs PYY(3-36)), [35S]GTPγS? I mean this binder: Bz-R[Ser(Me)″][Cha][Cha]NL[Aib]TRQR[Cha]-NH2 (SMILES COC[C@H](NC(=O)[C@H](CCCNC(=N)N)NC(=O)c1ccccc1)C(=O)N[C@@H](CC1CCCCC1)C(=O)N[C@@H](CC1CCCCC1)C(=O)N[C@@H](CC(N)=O)C(=O)N[C@@H](CC(C)C)C(=O)NC(C)(C)C(=O)N[C@H](C(=O)N[C@@H](CCCNC(=N)N)C(=O)N[C@@H](CCC(N)=O)C(=O)N[C@@H](CCCNC(=N)N)C(=O)N[C@@H](CC1CCCCC1)C(N)=O)[C@@H](C)O) [Benzoyl-[Ser(Me)26, Cha27,28,36, Aib31]-PYY(25-36)]
Output: 8.7
